Data origin, for the record: patent US20240415918A1

- measured-target: CCK-B receptors (CHO-CCK) (Homo sapiens)
- Construct: expressed in transfected cells; host or cells: CHO (CHO-CCK model cells)
- Sequence (P32239 1-447): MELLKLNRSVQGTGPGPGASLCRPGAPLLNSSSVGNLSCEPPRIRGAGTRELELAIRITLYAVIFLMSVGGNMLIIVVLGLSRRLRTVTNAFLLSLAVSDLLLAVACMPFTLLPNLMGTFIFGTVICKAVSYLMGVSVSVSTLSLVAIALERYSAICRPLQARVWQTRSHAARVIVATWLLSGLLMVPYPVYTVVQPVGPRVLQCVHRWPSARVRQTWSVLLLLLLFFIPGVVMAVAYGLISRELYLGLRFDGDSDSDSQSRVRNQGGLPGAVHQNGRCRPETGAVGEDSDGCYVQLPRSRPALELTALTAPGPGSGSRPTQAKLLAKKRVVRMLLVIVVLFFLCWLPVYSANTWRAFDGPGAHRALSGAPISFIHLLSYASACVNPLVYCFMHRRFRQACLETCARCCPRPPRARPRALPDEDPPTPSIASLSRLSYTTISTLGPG
- assay-details: Calcium flux (Fluo-8) agonist test on CHO-CCK model cells
- Assay type: cell-based
- assay-setup: CHO-CCK cells, compound alone; 100% = 20 nM CCK8
Where a SMILES comes first, the peptide text is derived from it. [ ]: non-standard residue; d: D form. Phe(3-Br) = N[C@@H](Cc1cccc(Br)c1)C(=O)O
result-type: EC50 (nM)

INSERT INTO results (molecule, measured_target, recorded_value) VALUES
  ('CSCC[C@H](NC(=O)[C@@H](Cc1c[nH]c2ccccc12)NC(C)=O)C(=O)N[C@@H](CC(C)C)C(=O)N[C@@H](Cc1cccc(Br)c1)C(N)=O [HT-190, Ac-D-Trp-Met-Leu-Phe(3-Br)-NH2] (Ac-[dW]ML[Phe(3-Br)]-NH2)', 'CCK-B receptors (CHO-CCK) (Homo sapiens)', 4750),
  ('CSCC[C@H](NC(=O)[C@H](N)Cc1c[nH]c2ccccc12)C(=O)N[C@@H](CC(=O)O)C(=O)N[C@@H](Cc1cccc(I)c1)C(N)=O', 'CCK-B receptors (CHO-CCK) (Homo sapiens)', 154),
  ('CS(=O)(=O)CC[C@H](NC(=O)[C@H](N)Cc1c[nH]c2ccccc12)C(=O)N[C@@H](CC(=O)O)C(=O)N[C@@H](Cc1cccc(I)c1)C(N)=O', 'CCK-B receptors (CHO-CCK) (Homo sapiens)', 4370),
  ('CSCC[C@H](NC(=O)[C@H](N)Cc1c[nH]c2ccccc12)C(=O)N[C@@H](CC(=O)O)C(=O)N[C@@H](Cc1cc(F)cc(F)c1)C(N)=O', 'CCK-B receptors (CHO-CCK) (Homo sapiens)', 44.2),
  ('CS(=O)(=O)CC[C@H](NC(=O)[C@H](N)Cc1c[nH]c2ccccc12)C(=O)N[C@@H](CC(=O)O)C(=O)N[C@@H](Cc1cccc(Br)c1)C(N)=O', 'CCK-B receptors (CHO-CCK) (Homo sapiens)', 6050),
  ('CSCC[C@H](NC(=O)[C@H](N)Cc1c[nH]c2ccccc12)C(=O)N[C@@H](CC(=O)O)C(=O)N[C@@H](Cc1ccccc1F)C(N)=O', 'CCK-B receptors (CHO-CCK) (Homo sapiens)', 225);

A. COC(=O)C[C@H](NC(=O)[C@H](CCSC)NC(=O)[C@H](N)Cc1c[nH]c2ccccc12)C(=O)N[C@@H](Cc1cc(Cl)cc(Cl)c1)C(N)=O
B. CSCC[C@H](NC(=O)[C@@H](Cc1ccc(O)cc1)NC(C)=O)C(=O)N[C@@H](CC(=O)O)C(=O)N[C@@H](Cc1cccc(Br)c1)C(N)=O [HT-182, Ac-D-Tyr-Met-Asp-Phe(3-Br)-NH2] (Ac-[dY]MD[Phe(3-Br)]-NH2)
C. CSCC[C@H](NC(=O)[C@@H](Cc1c[nH]c2ccccc12)NC(C)=O)C(=O)N[C@@H](Cc1c[nH]cn1)C(=O)N[C@@H](Cc1cccc(Br)c1)C(N)=O [HT-189, Ac-D-Trp-Met-His-Phe(3-Br)-NH2] (Ac-[dW]MH[Phe(3-Br)]-NH2)
D. CSCC[C@H](NC(=O)[C@H](N)Cc1c[nH]c2ccccc12)C(=O)N[C@@H](CC(=O)O)C(=O)N[C@@H](Cc1cc(F)c(F)c(F)c1)C(N)=O
E. COC(=O)C[C@H](NC(=O)[C@H](CCSC)NC(=O)[C@H](N)Cc1c[nH]c2ccccc12)C(=O)N[C@@H](Cc1cc(F)cc(F)c1)C(N)=O
Query block: List items by EC50 in falling order. Reply format: the labels, ordered as requested.
Result block: E, A, C, B, D
(E: 9300 nM, A: 3210 nM, C: 1990 nM, B: 421 nM, D: 78 nM)
